test system: HEK-293T; assay: Multiplex assay against HEK293T; assay type: toxicity, cell-based; conditions: human, 12 h, 1 µM, compound concentration 1 uM, replicate 2
Measurement type: Population Apoptotic (%)
Supply the numeric figure in %, leaving out any unit text.

Example compounds with recorded Population Apoptotic (%):
Given the compound CCCn1c(=O)c2[nH]c(C34CC5CC(CC3C5)C4)nc2n(CCC)c1=O , what is its reported Population Apoptotic (%)?
12

Any idea what Population Apoptotic (%) was measured for CNC(=O)c1nn(C)c2c1C(C)(C)Cc1cnc(Nc3ccc(N4CCN(C)CC4)cc3)nc1-2 ?
23

Which Population Apoptotic (%) value is on record for Cc1cn(-c2cc(NC(=O)c3ccc4c(c3)CN(c3cncnc3)C[C@@H]4C)cc(C(F)(F)F)c2)cn1 ?
8

Kindly review the next compound as well.
Look at this compound and give its reported Population Apoptotic (%). CN(C)C/C=C/C(=O)Nc1cc2c(Nc3ccc(F)c(Cl)c3)ncnc2cc1O[C@H]1CCOC1.O=C(O)/C=C\C(=O)O.O=C(O)/C=C\C(=O)O [AFATINIB DIMALEATE]
16

---

test system: U2OS; experiment: Multiplex assay against U2OS; format: toxicity, cell-based; settings: human, 24 h, 1 µM, compound concentration 1 uM, replicate 1
Measurement type: Total Cell Count

GET /values?readout=Total Cell Count&item= Nc1nc2c(c(N3CCNCC3)n1)CCC1=C2[C@@H]2CCCC[C@@H]2O1
203

Can you look up the measured Total Cell Count of CC(C)N1CCC(C)(C)c2cc(C#Cc3ccc(C(=O)O)cc3)ccc21 for me?
156

What value of Total Cell Count has been reported for the following compound? Cl.Cl.Nc1ncnc2c1c(-c1cccc(OCc3ccccc3)c1)cn2[C@H]1C[C@@H](CN2CCC2)C1
176

# input compound: CCCn1c(=O)c2[nH]c(C34CC5CC(CC3C5)C4)nc2n(CCC)c1=O [ROLOFYLLINE] ; wanted: its Total Cell Count
136

---

test system: U2OS; test: Multiplex assay against U2OS; assay type: toxicity, cell-based; conditions: human, 12 h, 10 µM, compound concentration 10 uM, replicate 1
Threshold-based label: Population Healthy Nuclei (%) under 60% gives fulfilled, Population Healthy Nuclei (%) not under 60% gives not fulfilled.

Past entries and their recorded results:
# strict comparison: is reported Population Healthy Nuclei (%) < 60%? input = CCOc1cc(N2CCC(O)CC2)ccc1Nc1ncc2c(n1)N(C1CCCC1)CCC(=O)N2C
not fulfilled

Lab log: compare recorded Population Healthy Nuclei (%) with 60%; is it strictly lower for Nc1nc2c(c(N3CCNCC3)n1)CCC1=C2[C@@H]2CCCC[C@@H]2O1 ?
not fulfilled

Please let me know if CC(=O)c1cc(-c2cc(C(=O)NC3CC3)ccc2C)c2ncccn12 shows Population Healthy Nuclei (%) below 60%.
not fulfilled

# TODO verify Population Healthy Nuclei (%) < 60% strictly for this compound: CN(C)C/C=C/C(=O)Nc1cc2c(Nc3ccc(F)c(Cl)c3)ncnc2cc1O[C@H]1CCOC1.O=C(O)/C=C\C(=O)O.O=C(O)/C=C\C(=O)O [AFATINIB DIMALEATE]
fulfilled

Identify whether the compound O=C(O)c1ccc2cc(-c3ccc(O)c(C45CC6CC(CC(C6)C4)C5)c3)ccc2c1 [O-DEMETHYLATED ADAPALENE] records Population Healthy Nuclei (%) below 60%.
not fulfilled

---
Check if Population Healthy Nuclei (%) falls below 60% for CCc1cc2c(cc1CC)CC(NC[C@H](O)c1ccc(O)c3[nH]c(=O)ccc13)C2 [INDACATEROL] .
fulfilled

Lab note: confirm whether the reported Population Healthy Nuclei (%) for this compound is below 60%, equality not counting. compound: Cl.Cl.Nc1ncnc2c1c(-c1cccc(OCc3ccccc3)c1)cn2[C@H]1C[C@@H](CN2CCC2)C1
fulfilled

Does COc1ccc(NS(=O)(=O)c2sc3ccc(Cl)cc3c2C)cc1N1CCNCC1.Cl have Population Healthy Nuclei (%) strictly under 60%?
fulfilled

Consider the compound CCCn1c(=O)c2[nH]c(C34CC5CC(CC3C5)C4)nc2n(CCC)c1=O [ROLOFYLLINE] . Is its Population Healthy Nuclei (%) strictly less than 60%?
not fulfilled

---

test system: HEK-293T; assay: Multiplex assay against HEK293T; assay type: toxicity, cell-based; settings: human, 24 h, 10 µM, compound concentration 10 uM, replicate 1
Hi! Could you tag entries with Population Mitochondria Different-Phenotype (%) below 80% as label 1, and those at or above as label 0? Much appreciated.

Completed entries (count: 4):
Is it true that Population Mitochondria Different-Phenotype (%) reported for CCOc1cc2ncc(C#N)c(Nc3ccc(OCc4cccc(F)c4)c(Cl)c3)c2cc1NC(=O)/C=C/CN(C)C is less than 80%?
label 1

Please state whether Population Mitochondria Different-Phenotype (%) is below 80% for N#Cc1cnc(Nc2cc(NC[C@H]3CNCCO3)c(C(F)(F)F)cn2)cn1
label 1

Confirm or reject: Population Mitochondria Different-Phenotype (%) of CC(=O)c1cc(-c2cc(C(=O)NC3CC3)ccc2C)c2ncccn12 lies strictly below 80%
label 1

For Cl.Cl.Nc1ncnc2c1c(-c1cccc(OCc3ccccc3)c1)cn2[C@H]1C[C@@H](CN2CCC2)C1 , is the recorded Population Mitochondria Different-Phenotype (%) below the cut-off of 80%?
label 0

Attention now shifts to the item below.
Please state whether Population Mitochondria Different-Phenotype (%) is below 80% for COc1ccc(NS(=O)(=O)c2sc3ccc(Cl)cc3c2C)cc1N1CCNCC1.Cl
label 0

---

test system: U2OS; test: Incucyte cell viability with U2OS; type: toxicity, cell-based; conditions: human, 12 h, 10 µM, compound concentration 10 uM, replicate number 1, timepoint 12 hours; further: filed as whole numbers so only -1 and 0 and 1 occur
Measurement type: Growth Rate
Please give only the number in your answer, with no unit.

Illustrative cases are given below, each with its answer.
Could you tell me which Growth Rate is on file for CCOc1cc2ncc(C#N)c(Nc3ccc(OCc4cccc(F)c4)c(Cl)c3)c2cc1NC(=O)/C=C/CN(C)C ?
0

Give its Growth Rate value. Item: Cc1cc(SCc2sc(-c3ccc(C(F)(F)F)c(F)c3)nc2C)ccc1OCC(=O)O
1

Which Growth Rate is listed for CCN(CC)CCCCC1CCN(CC(=O)N2c3ccccc3C(=O)Nc3cccnc32)CC1 ?
1

What does the data say about its Growth Rate? Entry: Cc1nc(C#Cc2ccnc(Cl)c2)c(C)n1-c1ccc(OC(F)(F)F)cc1
1

Request the reported Growth Rate associated with CS(=O)(=O)N1CCN(Cc2cc3nc(-c4cccc5[nH]ncc45)nc(N4CCOCC4)c3s2)CC1
0

Entry under review: COc1cccc(CNC(=O)c2nc3scc(CN(C)Cc4ccccc4)c3c(=O)[nH]2)c1 [T-26f] . Reported Growth Rate?
1

Returns the measured Growth Rate for the input compound. Input: CN(C(=O)Cc1ccc(Cl)c(Cl)c1)C(CN1CCCC1)c1cccc(OCC(=O)O)c1.Cl (stereo not drawn)
0

Give the measured Growth Rate of CNc1nc(Nc2cnn([C@H]3CCN(C4COC4)C[C@@H]3F)c2Cl)ncc1C(F)(F)F .
1

More entries:
Reported Growth Rate for Nc1ccc(C(=O)Nc2cccc(-c3nc(N4CCOCC4)c4oc5ncccc5c4n3)c2)cn1 : what is it?
0

# lookup: Growth Rate of CCCCc1nc2ccc(NC(=O)NC3CCCCC3)cc2n1Cc1ccc(-c2ccccc2C(=O)O)cc1
0

# lookup: Growth Rate of CCC(=O)N[C@H]1CC[C@@H](C(=O)N(C)c2ccc(-c3nc4ccccc4o3)cc2)C1
1

Find the recorded Growth Rate belonging to C[C@@H](NCCc1ccc(O)cc1)[C@@H](O)c1ccc(O)cc1.Cl (relative stereo) and report it.
1

Any idea what Growth Rate was measured for Cc1cccc(NC(=O)N[C@@H]2N=C(c3ccccc3)c3ccccc3N(C)C2=O)c1 ?
1

---

system: HEK-293T; test: Incucyte cell viability with HEK293T; assay type: toxicity, cell-based; settings: human, 0 h, 10 µM, compound concentration 10 uM, replicate number 1, timepoint 0 hours; further: filed as whole numbers so only -1 and 0 and 1 occur
Each item that follows carries a reported Growth Rate.
Respond numerically, and do not add a unit to the figure.

# annotated cases, reported Growth Rate shown
Tell me the measured Growth Rate of Cc1cc(C)c(N)c(C#Cc2cccc(F)c2)n1.Cl , please.
1

Which Growth Rate value belongs to CS(=O)(=O)c1cc(C2(NC(=O)c3cncc4c3cnn4-c3ccc(F)cc3)CC2)ccn1 [BI 639667] ?
0

Please report the recorded Growth Rate for O=C(Nc1cccnc1)c1cc(-c2ccnc(F)c2)ccc1OCc1ccccc1 .
0

Any idea what its Growth Rate is? The compound is CCC1(C2=NCCN2)Cc2ccccc2O1 (stereo not given) [EFAROXAN]
1

Endpoint output: Growth Rate of C[C@@H](NCCc1ccc(O)cc1)[C@@H](O)c1ccc(O)cc1.Cl (relative stereo) . Value?
0

Entry CCOc1cc2ncc(C#N)c(Nc3ccc(OCc4cccc(F)c4)c(Cl)c3)c2cc1NC(=O)/C=C/CN(C)C [HKI-357] : reported Growth Rate = ?
0

Request the reported Growth Rate associated with CNc1oc(-c2cccc3ccccc23)nc1C#N
0

Entry under review: CN(C)C(=O)c1ccc(-c2cc(C(=O)N(C)C3CCCC3)no2)cc1O . Reported Growth Rate?
0

Others:
# Growth Rate lookup, item O=C(O)COc1cccc(CN(Cc2ccc(-n3cccn3)cc2)S(=O)(=O)c2cccnc2)c1
0

Measured values drawn from ChEMBL document CHEMBL4689842 for this set.
